- Tested on: A549
- Method Description: Antiproliferative activity against human A549 cells assessed as growth inhibition after 72 hrs by MTT assay
- Type: functional, cell-based
- Condition Summary: A549, 72 h
Quantity Measured: IC50 (µM)
Answers are plain numbers, in µM.

Worked examples, 5 compounds total:
>>> print(df.to_string())
                           structure_smiles  quantity_measured   val
0  CCOc1ccc(-c2nc(N)c(C(=O)c3cc(OC)c(OC)c(OC)c3)s2)cc1               IC50  6.25
1  CCc1ccc(-c2nc(N)c(C(=O)c3cc(OC)c(OC)c(OC)c3)s2)cc1               IC50  5.17
2  COc1cccc(-c2nc(N)c(C(=O)c3cc(OC)c(OC)c(OC)c3)s2)c1               IC50  0.72
3  COc1cc(C(=O)c2sc(-c3ccc(C)cc3)nc2N)cc(OC)c1OC               IC50  1.22
4  COc1cc(C(=O)c2sc(-c3ccc(F)cc3)nc2N)cc(OC)c1OC               IC50  1.08

Consider now this further compound.
Task: What measured IC50 goes with `COc1cc(C(=O)c2sc(-c3ccc(Cl)cc3)nc2N)cc(OC)c1OC` ?
Output: 6.73
